Value source: the supplement of paper PMC4862054

system: MCF-10A; experiment: normalised response (% of control), CellTox Green; higher = less cell death (100 = DMSO, 0 = benzethonium chloride kill control); conditions: incubation time: 72 h
readout_label: normalised response (%)
Write down the numeric answer in % and omit the unit.

Known results for compounds:
>>> value("S=c1[nH]cnc2nc[nH]c12 [Mercaptopurine] (10000 nM)")
83.9
>>> value("CN1CCC(COc2cnc(-c3cccc(Cn4nc(-c5cccc(C#N)c5)ccc4=O)c3)nc2)CC1 (100 nM)")
102
>>> value("Nc1ccn([C@@H]2O[C@H](CO)[C@@H](O)[C@@H]2O)c(=O)n1 [Cytarabine] (100 nM)")
102
>>> value("Cc1c2oc3c(C)ccc(C(=O)N[C@@H]4C(=O)N[C@H](C(C)C)C(=O)N5CCC[C@H]5C(=O)N(C)CC(=O)N(C)[C@@H](C(C)C)C(=O)O[C@@H]4C)c3nc-2c(C(=O)N[C@@H]2C(=O)N[C@H](C(C)C)C(=O)N3CCC[C@H]3C(=O)N(C)CC(=O)N(C)[C@@H](C(C)C)C(=O)O[C@@H]2C)c(N)c1=O [Dactinomycin] (100 nM)")
-3.54
>>> value("Clc1ccc(C(c2ccccc2Cl)C(Cl)Cl)cc1 (stereo unspecified) [Mitotane] (1000 nM)")
96.4

Let us examine a further case.
normalised response for C=CCNC1=C2C[C@@H](C)C[C@H](OC)[C@H](O)[C@@H](C)/C=C(\C)[C@H](OC(N)=O)[C@@H](OC)/C=C\C=C(/C)C(=O)NC(=CC1=O)C2=O [Tanespimycin] (10000 nM) is 39.1

###

Reported drug sensitivity score by item:
test system: MCF-10A; test: drug sensitivity score (DSS), CellTiter-Glo (DSS (AUC-based score)); higher = stronger drug effect (viability inhibition or cytotoxicity); extreme values may be limits of the assay; conditions: incubation time: 72 h

>>> value("Nc1nc(Cl)nc2c1ncn2[C@H]1C[C@H](O)[C@@H](CO)O1")
0
>>> value("C[C@]1(c2nc3c(C(N)=O)cccc3[nH]2)CCCN1")
0
>>> value("OC[C@H]1O[C@@H](n2cnc3c2N=CNC[C@H]3O)C[C@@H]1O")
0
>>> value("CS(=O)(=O)c1ccc(C(=O)Nc2ccc(Cl)c(-c3ccccn3)c2)c(Cl)c1")
0
>>> value("CN(C)C/C=C/C(=O)Nc1cc2c(Nc3ccc(F)c(Cl)c3)ncnc2cc1O[C@H]1CCOC1")
17.4

drug sensitivity score for C=CC[C@@H]1/C=C(\C)C[C@H](C)C[C@H](OC)[C@H]2O[C@@](O)(C(=O)C(=O)N3CCCC[C@H]3C(=O)O[C@H](/C(C)=C/[C@@H]3CC[C@@H](O)[C@H](OC)C3)[C@H](C)[C@@H](O)CC1=O)[C@H](C)C[C@@H]2OC is 0

drug sensitivity score for COc1cccc2c1C(=O)c1c(O)c3c(c(O)c1C2=O)C[C@@](O)(C(=O)CO)C[C@@H]3O[C@H]1C[C@H](N)[C@H](O)[C@H](C)O1 is 1.13

###

Reported normalised viability by item:
tested on: HDQ-P1; experiment: normalised viability (% of control), CellTiter-Blue; higher = more viable cells (about 100 = DMSO control); details: 3 nM; incubation time: 72 h
Write down the numeric answer in % and omit the unit.

Known results for compounds:
>>> value("OC[C@H]1O[C@@H](n2cnc3c2N=CNC[C@H]3O)C[C@@H]1O")
118
>>> value("Nc1ccn([C@@H]2O[C@H](CO)[C@@H](O)[C@@H]2O)c(=O)n1")
80.6
>>> value("Cc1ccc(F)c(NC(=O)Nc2ccc(-c3cccc4[nH]nc(N)c34)cc2)c1")
111
>>> value("COc1cc(Nc2ncc3c(n2)-c2ccc(Cl)cc2C(c2c(F)cccc2OC)=NC3)ccc1C(=O)O")
102

Let us examine a further case.
normalised viability for Nc1nc(Cl)nc2c1ncn2[C@H]1C[C@H](O)[C@@H](CO)O1 is 101

###

test system: HCC1599; assay: normalised response (% of control), CellTox Green; higher = less cell death (100 = DMSO, 0 = benzethonium chloride kill control); details: incubation time: 72 h
readout_label: normalised response (%)
Write down the numeric answer in % and omit the unit.

Known results for molecules:
>>> value("Nc1nc(Cl)nc2c1ncn2[C@H]1C[C@H](O)[C@@H](CO)O1 [Cladribine] (100 nM)")
98.3
>>> value("CN(C)C/C=C/C(=O)Nc1cc2c(Nc3ccc(F)c(Cl)c3)ncnc2cc1O[C@H]1CCOC1 [Afatinib] (10 nM)")
109
>>> value("CN1CC[C@H](c2c(O)cc(O)c3c(=O)cc(-c4ccccc4Cl)oc23)[C@H](O)C1 [Alvocidib] (1000 nM)")
50.4
>>> value("Cc1c2oc3c(C)ccc(C(=O)N[C@@H]4C(=O)N[C@H](C(C)C)C(=O)N5CCC[C@H]5C(=O)N(C)CC(=O)N(C)[C@@H](C(C)C)C(=O)O[C@@H]4C)c3nc-2c(C(=O)N[C@@H]2C(=O)N[C@H](C(C)C)C(=O)N3CCC[C@H]3C(=O)N(C)CC(=O)N(C)[C@@H](C(C)C)C(=O)O[C@@H]2C)c(N)c1=O [Dactinomycin] (100 nM)")
75.9
>>> value("Clc1ccc(C(c2ccccc2Cl)C(Cl)Cl)cc1 (stereo not drawn) [Mitotane] (1000 nM)")
93.5
>>> value("S=c1[nH]cnc2nc[nH]c12 [Mercaptopurine] (1000 nM)")
92.1
>>> value("CN1CCC(COc2cnc(-c3cccc(Cn4nc(-c5cccc(C#N)c5)ccc4=O)c3)nc2)CC1 (100 nM)")
110

normalised response for Cc1c2oc3c(C)ccc(C(=O)N[C@@H]4C(=O)N[C@H](C(C)C)C(=O)N5CCC[C@H]5C(=O)N(C)CC(=O)N(C)[C@@H](C(C)C)C(=O)O[C@@H]4C)c3nc-2c(C(=O)N[C@@H]2C(=O)N[C@H](C(C)C)C(=O)N3CCC[C@H]3C(=O)N(C)CC(=O)N(C)[C@@H](C(C)C)C(=O)O[C@@H]2C)c(N)c1=O [Dactinomycin] (10 nM) is 99.3

###

Reported normalised response by item:
system: MFM-223; assay: normalised response (% of control), CellTox Green; higher = less cell death (100 = DMSO, 0 = benzethonium chloride kill control); details: incubation time: 72 h
Write down the numeric answer in % and omit the unit.

Known results for molecules:
>>> value("CN(C)C/C=C/C(=O)Nc1cc2c(Nc3ccc(F)c(Cl)c3)ncnc2cc1O[C@H]1CCOC1 [Afatinib] (1000 nM)")
99.8
>>> value("OC[C@H]1O[C@@H](n2cnc3c2N=CNC[C@H]3O)C[C@@H]1O [Pentostatin] (10000 nM)")
90.8
>>> value("N#CC[C@H](C1CCCC1)n1cc(-c2ncnc3[nH]ccc23)cn1 [Ruxolitinib] (100 nM)")
98.4
>>> value("CN1CCC(COc2cnc(-c3cccc(Cn4nc(-c5cccc(C#N)c5)ccc4=O)c3)nc2)CC1 (10 nM)")
103
>>> value("CC(=O)O[C@]1(C(C)=O)CC[C@H]2[C@@H]3C=C(C)C4=CC(=O)CC[C@]4(C)[C@H]3CC[C@@]21C [Megestrol acetate] (1000 nM)")
101
>>> value("CN(C)C/C=C/C(=O)Nc1cc2c(Nc3ccc(F)c(Cl)c3)ncnc2cc1O[C@H]1CCOC1 [Afatinib] (10 nM)")
69
>>> value("COc1cccc2c1C(=O)c1c(O)c3c(c(O)c1C2=O)C[C@@](O)(C(=O)CO)C[C@@H]3O[C@H]1C[C@H](N)[C@H](O)[C@H](C)O1 [Doxorubicin] (10 nM)")
107

Let us examine a further case.
normalised response for C=CC[C@@H]1/C=C(\C)C[C@H](C)C[C@H](OC)[C@H]2O[C@@](O)(C(=O)C(=O)N3CCCC[C@H]3C(=O)O[C@H](/C(C)=C/[C@@H]3CC[C@@H](O)[C@H](OC)C3)[C@H](C)[C@@H](O)CC1=O)[C@H](C)C[C@@H]2OC [Tacrolimus] (100 nM) is 101

###

system: MDA-MB-436; assay: normalised viability (% of control), CellTiter-Blue; higher = more viable cells (about 100 = DMSO control); details: 1000 nM; incubation time: 72 h
The threshold is 90%. Values of normalised viability beneath it are tagged criterion met; values meeting or exceeding it are tagged criterion not met.

Worked examples, 2 compounds total:
>>> cat("Clc1ccc(C(c2ccccc2Cl)C(Cl)Cl)cc1 (stereo not drawn)")
"criterion not met"
>>> cat("Cc1ccc(F)c(NC(=O)Nc2ccc(-c3cccc4[nH]nc(N)c34)cc2)c1")
"criterion not met"

Query :: Consider the compound COc1cc(Nc2ncc3c(n2)-c2ccc(Cl)cc2C(c2c(F)cccc2OC)=NC3)ccc1C(=O)O . Is its normalised viability strictly less than 90%?
Result :: criterion met
